test system: Staphylococcus aureus; test: Inhibition of Staphylococcus aureus topoisomerase-4 assessed as residual activity at 1 uM preincubated for 10 mins followed by ATP addition measured after 30 mins by purine nucleoside phosphorylase enzyme coupled spectrophotometric method relative to control
Measurement Name: Activity (%)
Give just the number in %; leave the unit off.

Field request: Activity | item: NCCOc1cc(C(=O)N[C@@H](Cc2ccccc2)C(=O)O)ccc1NC(=O)c1cc(Br)c(Br)[nH]1 98

Field request: Activity | item: CC(C)Oc1cc(C(=O)N[C@@H](C)C(=O)O)ccc1NC(=O)c1cc(Br)c(Br)[nH]1 98

Field request: Activity | item: Cc1[nH]c(C(=O)Nc2ccc(C(=O)N[C@@H](C)C(=O)NN)cc2OC(C)C)c(Cl)c1Cl 92

Field request: Activity | item: CC(C)Oc1cc(NC(=O)c2cc(Br)c(Br)[nH]2)ccc1C(=O)NCC(=O)O 96

Field request: Activity | item: Cc1[nH]c(C(=O)Nc2ccc(C(=O)N[C@@H](C)C(=O)O)cc2OCCNC(=O)OC(C)(C)C)c(Cl)c1Cl 99

---

target: DNA gyrase subunit B (Staphylococcus aureus); assay: Inhibition of Staphylococcus aureus DNA gyrase B preincubated for 10 mins followed by ATP addition measured after 30 mins by purine nucleoside phosphorylase enzyme coupled spectrophotometric method
Sequence (P0A0K8 whole entry): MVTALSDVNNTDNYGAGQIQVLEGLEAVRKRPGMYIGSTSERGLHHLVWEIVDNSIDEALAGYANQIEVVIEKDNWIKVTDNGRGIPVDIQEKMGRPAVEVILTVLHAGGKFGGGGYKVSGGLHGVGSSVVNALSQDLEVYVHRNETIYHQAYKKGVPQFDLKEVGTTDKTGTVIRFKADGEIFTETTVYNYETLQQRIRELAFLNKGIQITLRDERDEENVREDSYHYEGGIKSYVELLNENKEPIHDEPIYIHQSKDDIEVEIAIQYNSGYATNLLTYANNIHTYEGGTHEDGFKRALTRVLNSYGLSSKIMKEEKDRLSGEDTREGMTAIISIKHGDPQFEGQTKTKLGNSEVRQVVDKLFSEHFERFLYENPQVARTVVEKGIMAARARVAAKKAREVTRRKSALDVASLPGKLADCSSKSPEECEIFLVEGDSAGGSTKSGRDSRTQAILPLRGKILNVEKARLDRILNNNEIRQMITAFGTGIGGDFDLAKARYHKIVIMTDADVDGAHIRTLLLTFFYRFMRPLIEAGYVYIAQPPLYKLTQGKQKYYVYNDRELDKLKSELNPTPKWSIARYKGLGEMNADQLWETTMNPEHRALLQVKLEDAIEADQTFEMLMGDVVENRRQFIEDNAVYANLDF
Measurement Name: pIC50
pIC50 field: float, defined as -log10 of concentration (mol/L).

Field request: pIC50 | item: Cc1[nH]c(C(=O)Nc2ccc(C(=O)N[C@@H](C)C(=O)O)cc2OCCNC(=O)OC(C)(C)C)c(Cl)c1Cl 5.89

Field request: pIC50 | item: Cc1[nH]c(C(=O)Nc2ccc(C(=O)N[C@@H](C)C(=O)NN)cc2OC(C)C)c(Cl)c1Cl 4.66

Field request: pIC50 | item: Cc1[nH]c(C(=O)Nc2ccc(C(=O)N[C@@H](C)c3n[nH]c(=O)o3)cc2OCCN)c(Cl)c1Cl 6.00

Field request: pIC50 | item: CC(C)Oc1cc(C(=O)N[C@@H](C)C(=O)O)ccc1NC(=O)c1cc(Br)c(Br)[nH]1 5.23

Field request: pIC50 | item: Cc1[nH]c(C(=O)Nc2ccc(C(=O)N[C@H](C)C(=O)O)cc2OC(C)C)c(Cl)c1Cl 5.80

Field request: pIC50 | item: COC(=O)[C@H](C)NC(=O)c1ccc(NC(=O)c2[nH]c(C)c(Cl)c2Cl)c(OCCN)c1 6.41

Field request: pIC50 | item: Cc1[nH]c(C(=O)Nc2ccc(C(=O)N[C@@H](C)C(=O)O)cc2OC(C)C)c(Cl)c1Cl 7.03

Field request: pIC50 | item: Cc1[nH]c(C(=O)Nc2ccc(C(=O)N[C@@H](C)C(=O)O)cc2OCCN)c(Cl)c1Cl 6.96

Field request: pIC50 | item: Cc1[nH]c(C(=O)Nc2ccc(C(=O)NCC(=O)O)c(OC(C)C)c2)c(Cl)c1Cl 6.85

---

experiment: Cytotoxicity against human HepG2 cells assessed as cell proliferation at 50 uM after 72 hrs by MTS assay relative to control; type: cell-based; settings: read-out: Activity
Measurement Name: viability at 72 h, 50 µM (%)
Give just the number in %; leave the unit off.

Field request: viability at 72 h, 50 µM | item: Cc1[nH]c(C(=O)Nc2ccc(C(=O)N[C@@H](C)c3n[nH]c(=O)o3)cc2OC(C)C)c(Cl)c1Cl 85

---

system: Escherichia coli; assay: Inhibition of Escherichia coli C-terminal His6-tagged topoisomerase-4 expressed in Escherichia coli BL21(DE3) assessed as residual activity at 1 uM preincubated for 10 mins followed by ATP addition measured after 30 mins by purine nucleoside phosphorylase enzyme coupled spectrophotometric method relative to control
Would you kindly list Activity for each of these molecules?
Give just the number in %; leave the unit off.

What measured Activity is associated with NCCOc1cc(C(=O)N[C@@H](Cc2ccccc2)C(=O)O)ccc1NC(=O)c1cc(Br)c(Br)[nH]1 on Escherichia coli? 96

What measured Activity is associated with COC(=O)[C@H](C)NC(=O)c1ccc(NC(=O)c2[nH]c(C)c(Cl)c2Cl)c(OCCN)c1 on Escherichia coli? 89

What measured Activity is associated with CC(C)Oc1cc(C(=O)N[C@@H](C)C(=O)O)ccc1NC(=O)c1cc(Br)c(Br)[nH]1 on Escherichia coli? 78

What measured Activity is associated with O=C(O)CNC(=O)c1ccc(NC(=O)c2cc(Br)c(Br)[nH]2)cc1OCc1ccccc1 on Escherichia coli? 100

---

Would you kindly list MIC90 for each of these compounds?
system: Escherichia coli; experiment: Antibacterial activity against tolC deficient Escherichia coli JW5503 after 18 hrs by broth microdilution method; format: functional; conditions: JW5503, 18 h
Give just the number in µM; leave the unit off.

Field request: MIC90 | item: COC(=O)[C@H](C)NC(=O)c1ccc(NC(=O)c2cc(Br)c(Br)[nH]2)c(OC(C)C)c1 25

Field request: MIC90 | item: Cc1[nH]c(C(=O)Nc2ccc(C(=O)N[C@@H](C)C(=O)O)cc2OC(C)C)c(Cl)c1Cl 50

Field request: MIC90 | item: COC(=O)[C@H](C)NC(=O)c1ccc(NC(=O)c2[nH]c(C)c(Cl)c2Cl)c(OCCN)c1 25

Field request: MIC90 | item: Cc1[nH]c(C(=O)Nc2ccc(C(=O)N[C@@H](C)c3n[nH]c(=O)o3)cc2OCCN)c(Cl)c1Cl 50

Field request: MIC90 | item: COC(=O)[C@H](Cc1ccccc1)NC(=O)c1ccc(NC(=O)c2cc(Br)c(Br)[nH]2)c(OCCN)c1 25

---

biological target: DNA gyrase subunit B (Escherichia coli, UniProt P0AES6); assay: Inhibition of Escherichia coli DNA gyrase by supercoiling assay
Would you kindly list IC50 for each of these molecules?
Give just the number in nM; leave the unit off.

Field request: IC50 | item: Cc1[nH]c(C(=O)Nc2ccc(C(=O)NCC(=O)O)c(OC(C)C)c2)c(Cl)c1Cl 91

Field request: IC50 | item: O=C(O)CNC(=O)c1ccc(NC(=O)c2cc(Br)c(Br)[nH]2)cc1OCc1ccccc1 88

Field request: IC50 | item: Cc1[nH]c(C(=O)Nc2ccc(C(=O)N[C@@H](C)C(=O)NN)cc2OC(C)C)c(Cl)c1Cl 280

Field request: IC50 | item: Cc1[nH]c(C(=O)Nc2ccc(C(=O)N[C@@H](C)c3n[nH]c(=O)o3)cc2OCCNC(=O)OC(C)(C)C)c(Cl)c1Cl 1600

Field request: IC50 | item: Cc1[nH]c(C(=O)Nc2ccc(C(=O)N[C@@H](C)C(=O)O)cc2OCCN)c(Cl)c1Cl 28

Field request: IC50 | item: CC(C)Oc1cc(NC(=O)c2cc(Br)c(Br)[nH]2)ccc1C(=O)NCC(=O)O 400

Field request: IC50 | item: CC(C)Oc1cc(C(=O)N[C@@H](C)C(=O)O)ccc1NC(=O)c1cc(Br)c(Br)[nH]1 370

Field request: IC50 | item: Cc1[nH]c(C(=O)Nc2ccc(C(=O)N[C@@H](C)C(=O)O)cc2OCCNC(=O)OC(C)(C)C)c(Cl)c1Cl 590

Field request: IC50 | item: Cc1[nH]c(C(=O)Nc2ccc(C(=O)N[C@@H](C)c3n[nH]c(=O)o3)cc2OCCN)c(Cl)c1Cl 13

Field request: IC50 | item: Cc1[nH]c(C(=O)Nc2ccc(C(=O)N[C@H](C)C(=O)O)cc2OC(C)C)c(Cl)c1Cl 41

Field request: IC50 | item: NCCOc1cc(C(=O)N[C@@H](Cc2ccccc2)C(=O)O)ccc1NC(=O)c1cc(Br)c(Br)[nH]1 370

Field request: IC50 | item: Cc1[nH]c(C(=O)Nc2ccc(C(=O)N[C@@H](C)C(=O)O)cc2OC(C)C)c(Cl)c1Cl 38

Field request: IC50 | item: COC(=O)[C@H](C)NC(=O)c1ccc(NC(=O)c2[nH]c(C)c(Cl)c2Cl)c(OCCN)c1 34
